- Experimental Protocol: Food effect PK study, two single oral 1000 mg doses of abiraterone acetate, fed (high fat) vs fasted
- Type: in vivo, human
- Test Settings: human, plasma, oral, 1000 mg, Patient 20; Fasted; sample time 7.917
Observable: concentration at 7.917 h (nM)
Form entry: value (nM) — number only.

Query: // lookup concentration at 7.917 h for C[C@]12CC[C@H](O)CC1=CC[C@@H]1[C@@H]2CC[C@]2(C)C(c3cccnc3)=CC[C@@H]12 [Abiraterone]
Reply: 256

====

- Experimental Protocol: Food effect PK study, two single oral 1000 mg doses of abiraterone acetate, fed (high fat) vs fasted
- Type: in vivo, human
- Test Settings: human, plasma, oral, 1000 mg, Patient 14; Fasted; sample time 24.017 hr
Observable: concentration at 24.017 hr (nM)
Give the number; nM is assumed, so skip it.

Query: What value of measured concentration at 24.017 hr is listed for C[C@]12CC[C@H](O)CC1=CC[C@@H]1[C@@H]2CC[C@]2(C)C(c3cccnc3)=CC[C@@H]12 [Abiraterone] ?
Reply: 12.1

====

- Experimental Protocol: Food effect PK study, two single oral 1000 mg doses of abiraterone acetate, fed (high fat) vs fasted
- Format: in vivo, human
- Test Settings: human, plasma, oral, 1000 mg, Patient 20; Fed; sample time 2.000
Observable: concentration at 2 h (nM)
Give the quantity in nM, number only.

Query: Item under review: C[C@]12CC[C@H](O)CC1=CC[C@@H]1[C@@H]2CC[C@]2(C)C(c3cccnc3)=CC[C@@H]12 . Reported concentration at 2 h?
Reply: 201

====

- Experimental Protocol: Food effect PK study, two single oral 1000 mg doses of abiraterone acetate, fed (high fat) vs fasted
- Type: in vivo, human
- Test Settings: human, plasma, po, 1000 mg, mean; 1000 mg single oral dose; Fed
Observable: Tmax

Query: Fill in the blank: the reported Tmax of C[C@]12CC[C@H](O)CC1=CC[C@@H]1[C@@H]2CC[C@]2(C)C(c3cccnc3)=CC[C@@H]12 is ____.
Reply: 5.21 h

====

- Experimental Protocol: Food effect PK study, two single oral 1000 mg doses of abiraterone acetate, fed (high fat) vs fasted
- Format: in vivo, human
- Test Settings: human, plasma, oral, 1000 mg, Patient 20; Fed; sample time 47.517
Observable: concentration at 47.517 h (nM)
Field: numeric (nM). Do not append units.

Query: Any idea what its concentration at 47.517 h is? The compound is C[C@]12CC[C@H](O)CC1=CC[C@@H]1[C@@H]2CC[C@]2(C)C(c3cccnc3)=CC[C@@H]12 [Abiraterone]
Reply: 55.4

====

- Experimental Protocol: Food effect PK study, two single oral 1000 mg doses of abiraterone acetate, fed (high fat) vs fasted
- Type: in vivo, human
- Test Settings: human, plasma, oral, 1000 mg, Patient 15; Fasted
Observable: Tmax (h)
Dear colleague, please return just the value in h, with no unit written.

Query: # get_value(readout='Tmax', item= C[C@]12CC[C@H](O)CC1=CC[C@@H]1[C@@H]2CC[C@]2(C)C(c3cccnc3)=CC[C@@H]12 [Abiraterone] )
Reply: 2.98

====

- Experimental Protocol: Food effect PK study, two single oral 1000 mg doses of abiraterone acetate, fed (high fat) vs fasted
- Format: in vivo, human
- Test Settings: human, plasma, oral, 1000 mg, Patient 20; 1000 mg; Fed; read-out: Vz F obs
Observable: Vd/F (L)
Quick note: give the figure in L, leave out the unit.

Query: What does the record list as Vd/F for C[C@]12CC[C@H](O)CC1=CC[C@@H]1[C@@H]2CC[C@]2(C)C(c3cccnc3)=CC[C@@H]12 ?
Reply: 3210

====

- Experimental Protocol: Food effect PK study, two single oral 1000 mg doses of abiraterone acetate, fed (high fat) vs fasted
- Type: in vivo, human
- Test Settings: human, plasma, oral, 1000 mg, Patient 19; 1000 mg; Fed; read-out: Vz F obs
- Method: To measure the amount of abiraterone and abiraterone acetate in the samples, these compounds were extracted from 100 uL human plasma using solid phase extraction (SPE) with cation mixed-mode polymer cartridges. Extracts were evaporated to dryness before reconstitution and analysis. Chromatography was carried out using a Luna™ C5 column (5 μm, 50 mm×2.1 mm id) with a gradient mobile phase consisting of 10 mM ammonium acetate and 2% propan-2-ol in acetonitrile. […]
Observable: Vd/F (L)
Your answer is read as L, so omit the unit and give the number.

Query: Which measured Vd/F value corresponds to C[C@]12CC[C@H](O)CC1=CC[C@@H]1[C@@H]2CC[C@]2(C)C(c3cccnc3)=CC[C@@H]12 ?
Reply: 4250

====

- Experimental Protocol: Food effect PK study, two single oral 1000 mg doses of abiraterone acetate, fed (high fat) vs fasted
- Format: in vivo, human
- Test Settings: human, plasma, oral, 1000 mg, Patient 20; Fed
Observable: AUC(0-t) (µM·h)
Write it as a number; the unit µM·h goes unstated.

Query: Param item = C[C@]12CC[C@H](O)CC1=CC[C@@H]1[C@@H]2CC[C@]2(C)C(c3cccnc3)=CC[C@@H]12 ; retrieve measured AUC(0-t).
Reply: 22.8
